target: Histone-lysine N-methyltransferase EHMT2 (Homo sapiens); assay: qHTS Assay for Inhibitors of Histone Lysine Methyltransferase G9a; conditions: G9a H3K9 monomethylation, AlphaScreen, 2 h; series mostly up to 59 µM; note: nearly all actives have a fitted effect of over 75% in size
About 31,000 (8.9%) of roughly 350,000 compounds were called active. About 15% were inconclusive and are not listed. Calls come from the whole dose curve; as a rule, active = well fitted inhibition curve with a large enough effect; inconclusive = small, poorly fitted or top-dose-only effect; inactive = no such curve, though single readings can be large or run the other way. Only a selection was taken, and actives are over-represented in it overall.
Classes used: t = active, f = inactive

molecule=CC(=O)c1cc2c(cc1NC(=O)Cn1nc(-c3ccc(F)cc3)ccc1=O)OCO2 measurement_target="Histone-lysine N-methyltransferase EHMT2 (Homo sapiens)" category_label=f
molecule=CCOc1ccc2nc(N(CCCN(C)C)C(=O)c3ccc(C(=O)c4ccccc4)cc3)sc2c1 measurement_target="Histone-lysine N-methyltransferase EHMT2 (Homo sapiens)" category_label=t
molecule=COc1cc2ccccc2cc1C(=O)Nc1ccncc1 measurement_target="Histone-lysine N-methyltransferase EHMT2 (Homo sapiens)" category_label=f
molecule=COc1ccc(CCN(C(=O)COc2ccccc2)c2nc(-c3ccccc3)cs2)cc1OC measurement_target="Histone-lysine N-methyltransferase EHMT2 (Homo sapiens)" category_label=f
molecule=Cc1ccc(NC(=S)NCc2ccccc2Cl)c(C)c1 measurement_target="Histone-lysine N-methyltransferase EHMT2 (Homo sapiens)" category_label=f
molecule=CN(C)CCCN(C(=O)COc1ccccc1)c1nc2c(Cl)cccc2s1 measurement_target="Histone-lysine N-methyltransferase EHMT2 (Homo sapiens)" category_label=t
molecule=Cc1ccc(NC(=S)NCCc2ccc(Cl)cc2)c(C)c1 measurement_target="Histone-lysine N-methyltransferase EHMT2 (Homo sapiens)" category_label=f
molecule=Cc1ccc(C(=O)NC(=S)NCc2cccnc2)cc1 measurement_target="Histone-lysine N-methyltransferase EHMT2 (Homo sapiens)" category_label=f
molecule=COc1ccc(-c2nnc(SCc3cccnc3)o2)cc1 measurement_target="Histone-lysine N-methyltransferase EHMT2 (Homo sapiens)" category_label=f
molecule=O=C1Nc2ccc([N+](=O)[O-])cc2C1=Nc1cccc(CO)c1 measurement_target="Histone-lysine N-methyltransferase EHMT2 (Homo sapiens)" category_label=f
molecule=CN(Cc1ccccc1)C(=O)COc1ccccc1 measurement_target="Histone-lysine N-methyltransferase EHMT2 (Homo sapiens)" category_label=f
molecule=Cc1ccc(Oc2c(C(F)(F)F)oc3c(CN4CCCCC4)c(O)ccc3c2=O)cc1 measurement_target="Histone-lysine N-methyltransferase EHMT2 (Homo sapiens)" category_label=f
molecule=CCOC(=O)N1CCN(Cc2nc(Cc3cccc(C(F)(F)F)c3)no2)CC1 measurement_target="Histone-lysine N-methyltransferase EHMT2 (Homo sapiens)" category_label=f
molecule=CCOc1ccc2nc(Nc3nc4ccc(NC(C)=O)cc4s3)sc2c1 measurement_target="Histone-lysine N-methyltransferase EHMT2 (Homo sapiens)" category_label=f
molecule=COc1cc(SC)ccc1C(=O)N(Cc1ccccc1)c1ccccc1 measurement_target="Histone-lysine N-methyltransferase EHMT2 (Homo sapiens)" category_label=f
molecule=CCCC(=O)N(CCN1CCOCC1)c1nc2ccc(OCC)cc2s1 measurement_target="Histone-lysine N-methyltransferase EHMT2 (Homo sapiens)" category_label=f
molecule=CN1CCN(/N=C2/C(=O)Nc3ccc([N+](=O)[O-])cc32)CC1 measurement_target="Histone-lysine N-methyltransferase EHMT2 (Homo sapiens)" category_label=t
molecule="O=c1c2ccccc2nc2n1C(CSCc1cccc(C(F)(F)F)c1)CS2 (stereo not drawn)" measurement_target="Histone-lysine N-methyltransferase EHMT2 (Homo sapiens)" category_label=f
molecule=Cc1cc(C)cc(NC(=O)Cn2c(=O)c3ccccc3n3nncc23)c1 measurement_target="Histone-lysine N-methyltransferase EHMT2 (Homo sapiens)" category_label=f
molecule=O=C(CSC(=S)N1CCOCC1)c1cc(Br)cc(Br)c1O measurement_target="Histone-lysine N-methyltransferase EHMT2 (Homo sapiens)" category_label=t
molecule=Cc1ccc(NC(=S)Nc2ncccc2C)c(C)c1 measurement_target="Histone-lysine N-methyltransferase EHMT2 (Homo sapiens)" category_label=t
molecule="COc1ccccc1NC(=O)CC(NCCN(C)C)C(=O)O (stereo not drawn)" measurement_target="Histone-lysine N-methyltransferase EHMT2 (Homo sapiens)" category_label=f
molecule=Cc1ccccc1CN1CCC(CNC(=O)c2c(C)oc3ncnc(N4CCCCC4)c23)CC1 measurement_target="Histone-lysine N-methyltransferase EHMT2 (Homo sapiens)" category_label=f
